- target.under.test: Chromo domain-containing protein 1 (Saccharomyces cerevisiae (strain ATCC 204508 / S288c) (Baker's yeast)) (UniProt P32657)
- Sequence (P32657 whole entry, the tested form may be a part): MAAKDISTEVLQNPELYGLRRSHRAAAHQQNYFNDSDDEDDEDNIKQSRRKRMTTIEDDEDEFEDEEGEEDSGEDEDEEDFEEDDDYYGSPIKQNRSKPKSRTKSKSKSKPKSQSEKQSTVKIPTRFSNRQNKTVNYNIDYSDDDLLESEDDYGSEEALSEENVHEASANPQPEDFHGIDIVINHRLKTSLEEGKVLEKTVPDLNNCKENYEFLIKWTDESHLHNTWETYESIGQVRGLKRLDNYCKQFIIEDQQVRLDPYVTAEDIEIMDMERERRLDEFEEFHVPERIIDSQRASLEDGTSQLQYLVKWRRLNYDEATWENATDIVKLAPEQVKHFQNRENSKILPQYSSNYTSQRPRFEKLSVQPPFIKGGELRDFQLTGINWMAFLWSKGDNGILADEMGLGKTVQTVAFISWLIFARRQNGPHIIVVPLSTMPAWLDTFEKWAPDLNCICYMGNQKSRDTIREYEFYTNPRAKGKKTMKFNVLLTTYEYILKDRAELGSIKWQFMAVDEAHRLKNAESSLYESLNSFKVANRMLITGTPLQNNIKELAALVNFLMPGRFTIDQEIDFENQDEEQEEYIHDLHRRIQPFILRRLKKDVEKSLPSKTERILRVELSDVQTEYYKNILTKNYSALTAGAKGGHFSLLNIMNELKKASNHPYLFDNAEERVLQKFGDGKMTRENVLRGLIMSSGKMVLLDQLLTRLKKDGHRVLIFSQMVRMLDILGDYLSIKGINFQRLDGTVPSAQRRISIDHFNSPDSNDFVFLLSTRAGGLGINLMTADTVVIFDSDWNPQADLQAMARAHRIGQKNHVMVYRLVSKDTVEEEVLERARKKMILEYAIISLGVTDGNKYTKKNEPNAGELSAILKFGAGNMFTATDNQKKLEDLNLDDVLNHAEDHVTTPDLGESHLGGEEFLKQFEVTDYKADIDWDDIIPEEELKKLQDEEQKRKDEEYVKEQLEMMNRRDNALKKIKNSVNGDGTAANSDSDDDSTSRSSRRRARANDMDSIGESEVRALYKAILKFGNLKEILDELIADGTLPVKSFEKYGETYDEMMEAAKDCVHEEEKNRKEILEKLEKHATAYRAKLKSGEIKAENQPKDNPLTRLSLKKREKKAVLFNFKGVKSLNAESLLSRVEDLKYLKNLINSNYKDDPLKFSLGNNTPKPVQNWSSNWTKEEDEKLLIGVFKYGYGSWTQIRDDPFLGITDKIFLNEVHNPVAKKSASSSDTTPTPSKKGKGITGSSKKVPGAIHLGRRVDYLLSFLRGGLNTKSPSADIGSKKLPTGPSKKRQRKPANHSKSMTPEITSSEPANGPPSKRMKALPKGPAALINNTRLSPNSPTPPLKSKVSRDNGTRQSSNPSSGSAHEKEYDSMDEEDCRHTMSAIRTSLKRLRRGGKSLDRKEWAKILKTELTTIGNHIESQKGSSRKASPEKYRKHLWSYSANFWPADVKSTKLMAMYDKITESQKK
- assay.protocol: ScCHD-1 Enzyme Inhibition Assay
- Type: functional
- Parameters: scale not given: in the data most compounds retested in dose-response had high values
- measurement.setup: 30 µM
measure: Percent Effect (%)
Supply the numeric figure in %, leaving out any unit text.

- compound: "CC(C)(O)CN1CCN(C(=O)c2cc3ccccc3c(=O)[nH]2)CC1"
  measurement.units: "%"
  reported: -5.58
- compound: "CC(NCc1ccncc1)c1cc(F)ccc1N1CCN(C)CC1 (configuration not stated)"
  measurement.units: "%"
  reported: -9.91
- compound: "C1CC(c2noc(C3CC3)n2)CN(Cc2noc(C3CC3)n2)C1 (configuration not stated)"
  measurement.units: "%"
  reported: 1.88
- compound: "CC1(NC(=O)Cc2csc(C(C)(C)C)n2)CCS(=O)(=O)C1 (configuration not stated)"
  measurement.units: "%"
  reported: -4.8

Give reported Percent Effect value for COc1ccc(CN2CCC(O)CC2)c(OC)c1
-0.716

In one line, give reported Percent Effect of the entry CC(CN1CCCC1)C(=O)N1CCC(c2nccn2CC2CC2)CC1 (configuration not stated) .
-11.2

Retrieve Percent Effect measured for Clc1ccc2oc(C3CCN(Cc4cccnc4)CC3)nc2c1 and print it.
-6.96

Please report the measured Percent Effect for O=c1c2cnc(N3CCCCC3)nc2ccn1-c1ccccc1
-8.21

Please report Percent Effect for the following compound: CC(=O)N1CCN(c2cc(-c3ccccc3)nc3c(C)c(C)nn23)CC1
-7.72

Dear colleague, please send me the reported Percent Effect for CC(C)n1cc(S(=O)(=O)N2CCCCC2)cn1 when you can.
-8.47

Give the measured Percent Effect for O=C(Cn1cc(I)cn1)N1CCc2ccccc2C1
-2.67

Retrieve Percent Effect measured for CCN(CC)C(=O)c1nnn(-c2ccc(C)cc2)c1C1CC1 and print it.
-3.92
